LD50 by entry:
- Tested on: Rattus norvegicus
- particulars: acute; dermal

>  <molecule>
Cc1cccc([N+](=O)[O-])c1

>  <LD50>
> 1160 mg/kg

$$$$
>  <molecule>
CCCCC(CC)C(=O)O (centres undefined)

>  <LD50>
> 2000 mg/kg

$$$$
>  <molecule>
CS(C)=O [Dimethyl sulfoxide]

>  <LD50>
40000 mg/kg

$$$$
>  <molecule>
CCCCCCCCCCCCCCCCCCOC(=O)CCSCCC(=O)OCCCCCCCCCCCCCCCCCC [Distearyl thiodipropionate]

>  <LD50>
> 2000 mg/kg

$$$$

---

- Test system: Rattus norvegicus
- particulars: acute; oral; gavage; Sprague-Dawley
LD50 by entry:

>  <molecule>
CC(C)(c1cc(Br)c(O)c(Br)c1)c1cc(Br)c(O)c(Br)c1

>  <LD50>
> 5000 mg/kg

$$$$
>  <molecule>
CCCCCCCCCCCCCOC(=O)c1ccccc1C(=O)OCCCCCCCCCCCCC [Ditridecyl phthalate]

>  <LD50>
> 2000 mg/kg

$$$$
>  <molecule>
CCCCCCCCc1ccc(Nc2ccc(CCCCCCCC)cc2)cc1

>  <LD50>
> 7940 mg/kg

$$$$
>  <molecule>
CCCCOC(=O)CC [Butyl propionate]

>  <LD50>
11000 mg/kg

$$$$
>  <molecule>
COc1cc(S(=O)(=O)[O-])c(C)cc1N=Nc1c(O)ccc2cc(S(=O)(=O)[O-])ccc12.[Na+].[Na+]

>  <LD50>
> 10000 mg/kg

$$$$
>  <molecule>
Cc1cccnc1

>  <LD50>
710 mg/kg

$$$$
>  <molecule>
O=C(O)C1CCC(C(=O)O)CC1 (stereo not drawn)

>  <LD50>
2080 mg/kg

$$$$
>  <molecule>
OCC(CO)(CBr)CBr [Pentaerythritol dibromide]

>  <LD50>
> 2000 mg/kg

$$$$
>  <molecule>
O=[N+]([O-])c1ccc(Cl)cc1

>  <LD50>
530 mg/kg

$$$$
>  <molecule>
CCCCCCCCCCCCCl

>  <LD50>
> 2000 mg/kg

$$$$
>  <molecule>
O[B-](c1ccccc1)(c1ccccc1)c1ccccc1.[Na+] [Sodium hydroxytriphenylborate]

>  <LD50>
1240 mg/kg

$$$$
>  <molecule>
CCCCCCCCCc1cc2ccccc2c(S(=O)(=O)[O-])c1CCCCCCCCC.CCCCCCCCCc1cc2ccccc2c(S(=O)(=O)[O-])c1CCCCCCCCC.[Ca+2] [Calcium bis(dinonylnaphthalenesulphonate)]

>  <LD50>
> 5000 mg/kg

$$$$
>  <molecule>
C=C(C)C(=O)OCC[N+](C)(C)C.[Cl-] [(2-(Methacryloyloxy)ethyl)trimethylammonium chloride]

>  <LD50>
> 2000 mg/kg

$$$$
